target: Cytochrome P450 3A4 (Homo sapiens) (UniProt P08684); assay: qHTS Assay for Inhibitors and Substrates of Cytochrome P450 3A4 (AID 884); conditions: recombinant CYP3A4, Luciferin-PPXE luminescence; series mostly up to 57.1 µM; note: nearly all actives have a fitted effect of over 50% in size; note: potency is the fitted concentration of half-maximal effect
Sequence (P08684 whole entry, looked up): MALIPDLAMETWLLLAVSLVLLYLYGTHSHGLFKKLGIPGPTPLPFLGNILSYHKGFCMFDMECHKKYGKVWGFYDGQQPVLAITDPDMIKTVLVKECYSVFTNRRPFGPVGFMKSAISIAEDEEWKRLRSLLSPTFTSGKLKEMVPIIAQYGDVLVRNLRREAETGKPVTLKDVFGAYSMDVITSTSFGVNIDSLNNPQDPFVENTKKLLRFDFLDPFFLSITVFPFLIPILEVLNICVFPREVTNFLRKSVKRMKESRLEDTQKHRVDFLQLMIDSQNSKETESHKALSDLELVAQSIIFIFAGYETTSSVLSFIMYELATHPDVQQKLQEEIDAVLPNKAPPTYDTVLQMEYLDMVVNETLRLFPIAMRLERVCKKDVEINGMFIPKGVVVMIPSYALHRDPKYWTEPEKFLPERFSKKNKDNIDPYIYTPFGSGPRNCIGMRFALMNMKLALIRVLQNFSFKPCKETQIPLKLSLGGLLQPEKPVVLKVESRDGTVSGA
Inconclusive results are not listed. Active and inactive are the calls of the source. Calls come from the whole dose curve; as a rule, active = well fitted inhibition curve with a large enough effect; inconclusive = small, poorly fitted or top-dose-only effect; inactive = no such curve, though single readings can be large or run the other way.
metric: Potency

Some entries whose results are on file:
> print(dat)
                                   molecule   metric     reportedvalue
1  COc1cccc(OC)c1OCCNCC1COc2ccccc2O1 (configuration not stated)  Potency  3.16 µM (active)
2  N#C/C(=C\c1c[nH]c2ccccc12)C(=O)c1ccc(O)c(O)c1  Potency  7.94 µM (active)
3              CN(C)c1ccc(N=NS(=O)(=O)O)cc1  Potency          inactive
4        Cc1c(Nc2ncccc2C(=O)O)cccc1C(F)(F)F  Potency          inactive
5                   O=C(OCc1ccccc1)c1ccccc1  Potency          inactive
6                 N=C1N=C(N)c2cc3ccccc3cc21  Potency          inactive

--- query ---
Record Fc1ccc(C(OCCCc2cnc[nH]2)c2ccc(F)cc2)cc1 . Reported Potency: 0.794 µM (active)

====

target: Cytochrome P450 3A4 (Homo sapiens) (UniProt P08684); test: qHTS Assay for Activators of Cytochrome P450 3A4 (AID 885); conditions: recombinant CYP3A4, Luciferin-PPXE luminescence, 60 min; series mostly up to 57.1 µM; note: nearly all actives have a fitted effect of over 65% in size
Active and inactive are the calls of the source. The call rests on the fitted dose curve; in most records, active means well fitted activation curve with a large enough effect; inconclusive means small, poorly fitted or top-dose-only effect; inactive means no such curve, though single readings can be large or run the other way.
metric: activity change, positive = activation

> print(dat)
                            structuresmiles  reportedvalue
1  O=c1[nH]c2cc([N+](=O)[O-])c([N+](=O)[O-])cc2[nH]c1=O       inactive
2           CN1CCc2cc(NC(=O)Nc3cccnc3)ccc21       inactive
3  COC(=O)c1c(C)[nH]c(C)c1C(=O)c1ccccc1Cc1ccccc1       inactive
4               COC1=C(OC)C(=O)c2ccccc2C1=O       inactive
5  CCCN(CC1CC1)c1nc(C)nc(Nc2c(Cl)cc(Cl)cc2Cl)c1Cl       inactive

Sample O=C(c1cc(O)c(O)c([N+](=O)[O-])c1)c1ccccc1F , system: Cytochrome P450 3A4 (Homo sapiens) (UniProt P08684). Its activity change, positive = activation is inactive

Sample COc1cc(/C=C/C(=O)CC(=O)/C=C/c2ccc(O)c(OC)c2)ccc1O , system: Cytochrome P450 3A4 (Homo sapiens) (UniProt P08684). Its activity change, positive = activation is inactive

Sample N.N.O=C(O)C1(C(=O)O)CCC1.[Pt] , system: Cytochrome P450 3A4 (Homo sapiens) (UniProt P08684). Its activity change, positive = activation is inactive

Sample CC(C)(C=O)Cc1cc(C(C)(C)C)c(O)c(C(C)(C)C)c1 , system: Cytochrome P450 3A4 (Homo sapiens) (UniProt P08684). Its activity change, positive = activation is inactive

Sample COc1cc(CNC(=O)CCCC/C=C/C(C)C)ccc1O , system: Cytochrome P450 3A4 (Homo sapiens) (UniProt P08684). Its activity change, positive = activation is inactive

Sample COc1ccccc1CNCCCCCCNCCCCCCCCNCCCCCCNCc1ccccc1OC , system: Cytochrome P450 3A4 (Homo sapiens) (UniProt P08684). Its activity change, positive = activation is inactive
